Biological target: Histamine H3 receptor (Homo sapiens)
Assay: Binding affinity at histamine H3 receptor by hH3-[35S]GTPgamma[S] binding assay
Type: functional

# COMPOUND, Ki
rows = [
    ("CCN1CCN(C(=O)N[C@@H]2C[C@H]2c2ccccc2)CC1", "40 nM (antagonist)"),
    ("COc1cccc(CNC(=O)N2CCC[C@H]2CN2CCCC2)c1", "188 nM (antagonist)"),
    ("CC(C)N1CCN(C(=O)NCc2ccc(Oc3ccccc3)cc2)CC1", "34 nM (antagonist)"),
    ("O=C(NCc1ccc(Cl)cc1)N1CCC[C@H]1CN1CCCC1", "165 nM (antagonist)"),
    ("O=C(NCCc1ccccc1)N1CCC[C@H]1CN1CCCC1", "226 nM (antagonist)"),
    ("O=C(NCc1ccc(Cl)c(Cl)c1)N1CCC[C@H]1CN1CCCC1", "47 nM (antagonist)"),
    ("O=C(NCc1ccccc1)N1CCN(C2CCCC2)CC1", "94 nM (antagonist)"),
    ("O=C(NCC1CCCCC1)N1CCC[C@H]1CN1CCCC1", "458 nM (antagonist)"),
    ("O=C(NC1Cc2ccccc2C1)N1CCC[C@H]1CN1CCCC1", "52 nM (antagonist)"),
    ("CCN1CCN(C(=O)NC2Cc3ccccc3C2)CC1", "44 nM (antagonist)"),
]

---

Molecular target: hERG (KCNH2) (Homo sapiens, UniProt Q12809)
Sequence (Q12809 whole entry): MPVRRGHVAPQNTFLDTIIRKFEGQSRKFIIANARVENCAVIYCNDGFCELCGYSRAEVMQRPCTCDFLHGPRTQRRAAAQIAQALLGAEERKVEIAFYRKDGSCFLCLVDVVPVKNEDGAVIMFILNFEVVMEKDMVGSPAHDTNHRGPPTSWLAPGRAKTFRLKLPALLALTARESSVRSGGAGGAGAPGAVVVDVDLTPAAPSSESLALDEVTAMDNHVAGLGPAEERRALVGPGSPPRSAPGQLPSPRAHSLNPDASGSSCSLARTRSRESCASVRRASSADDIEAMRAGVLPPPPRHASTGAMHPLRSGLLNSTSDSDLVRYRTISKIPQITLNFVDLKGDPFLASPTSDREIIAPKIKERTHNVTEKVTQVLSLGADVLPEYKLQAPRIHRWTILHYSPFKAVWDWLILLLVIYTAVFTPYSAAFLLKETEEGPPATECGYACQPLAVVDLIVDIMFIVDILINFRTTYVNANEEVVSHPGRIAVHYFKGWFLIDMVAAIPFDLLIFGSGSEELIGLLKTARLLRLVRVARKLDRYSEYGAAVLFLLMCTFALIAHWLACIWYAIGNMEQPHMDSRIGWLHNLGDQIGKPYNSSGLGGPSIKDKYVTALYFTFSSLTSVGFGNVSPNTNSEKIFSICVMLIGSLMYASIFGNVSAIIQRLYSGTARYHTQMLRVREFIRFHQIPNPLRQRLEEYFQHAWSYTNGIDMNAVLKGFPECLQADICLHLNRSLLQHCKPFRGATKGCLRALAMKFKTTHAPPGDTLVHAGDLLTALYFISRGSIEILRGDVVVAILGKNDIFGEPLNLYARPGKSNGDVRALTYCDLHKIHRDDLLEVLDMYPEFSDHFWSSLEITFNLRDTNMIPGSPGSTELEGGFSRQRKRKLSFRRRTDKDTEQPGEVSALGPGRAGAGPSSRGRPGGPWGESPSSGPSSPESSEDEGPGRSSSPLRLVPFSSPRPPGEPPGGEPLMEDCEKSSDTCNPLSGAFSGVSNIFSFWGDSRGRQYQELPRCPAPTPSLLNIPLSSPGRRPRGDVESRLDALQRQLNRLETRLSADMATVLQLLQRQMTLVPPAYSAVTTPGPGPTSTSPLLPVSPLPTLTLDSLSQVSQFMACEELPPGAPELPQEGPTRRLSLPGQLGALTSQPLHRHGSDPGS
Assay: in vitro
Conditions: hek293
Entries annotated with measured inhibition at 10 µM
RECORDED_ENDPOINT: inhibition at 10 µM (%)

# COMPOUND, READOUT_NUMBER
measured = [
    ("CC(C)N1CCN(C(=O)N2CC=C(c3ccccc3)CC2)CC1", 31),
    ("CC(C)N1CCN(C(=O)N2CCC(NC(=O)C3CCCC3)CC2)CC1", 6),
    ("CC(C)N1CCN(C(=O)N2CCC(C(=O)N3CC4CCC(CC4)C3)CC2)CC1", 8),
    ("CC(C)N1CCN(C(=O)N2CCC(Cc3ccccc3)CC2)CC1", 21),
]

---

Target: hERG (KCNH2) (Homo sapiens)
Test: in vitro
Settings: HEK293 cells that express hERG, probe [3H]astemizole

# COMPOUND, inhibition at 10 µM / %
data = [
    ("CN(Cc1ccc(-c2ccccc2)cc1)C(=O)N1CCC[C@H]1CN1CCCC1", 66),
    ("O=C(N1Cc2ccccc2C1)N1CCC[C@H]1CN1CCCC1", 26),
    ("O=C(N1CCN(C2CCCC2)CC1)N1Cc2ccccc2C1", 45),
    ("COc1cc2c(cc1OC)CN(C(=O)N1CCN(C(C)C)CC1)CC2", 8),
    ("O=C(N1CCN(C2CC2)CC1)N1Cc2ccccc2C1", 16),
    ("CC(C)N1CCN(C(=O)N2CCC(C(=O)OC(C)(C)C)CC2)CC1", 9),
    ("CC(C)N1CCN(C(=O)N(C)Cc2ccc(-c3ccccc3)cc2)CC1", 55),
]

---

Target: Histamine H3 receptor (Homo sapiens, UniProt Q9Y5N1)
Sequence (Q9Y5N1 whole entry): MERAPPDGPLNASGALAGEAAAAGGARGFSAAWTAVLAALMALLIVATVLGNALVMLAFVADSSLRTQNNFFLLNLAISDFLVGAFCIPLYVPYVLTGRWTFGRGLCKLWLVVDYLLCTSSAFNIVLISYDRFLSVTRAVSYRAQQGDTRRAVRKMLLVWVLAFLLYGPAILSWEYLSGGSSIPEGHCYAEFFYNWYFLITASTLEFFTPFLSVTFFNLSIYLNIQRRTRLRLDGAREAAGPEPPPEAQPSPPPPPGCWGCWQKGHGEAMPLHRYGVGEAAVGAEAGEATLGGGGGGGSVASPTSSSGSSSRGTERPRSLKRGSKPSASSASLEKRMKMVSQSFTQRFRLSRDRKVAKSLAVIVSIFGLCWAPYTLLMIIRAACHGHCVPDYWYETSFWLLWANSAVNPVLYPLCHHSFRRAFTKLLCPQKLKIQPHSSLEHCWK
Experiment: Binding affinity at histamine H3 receptor by hH3-[35S]GTPgamma[S] binding assay
Type: functional
Each record here notes measured Ki.

# COMPOUND, Ki
records = [
    ("O=C(NC1Cc2ccccc2C1)N1CCN(C2CCCC2)CC1", "29 nM (antagonist)"),
    ("COc1ccc(CNC(=O)N2CCC[C@H]2CN2CCCC2)cc1", "295 nM (antagonist)"),
    ("O=C(NCc1ccccc1)N1CCC[C@H]1CN1CCCC1", "196 nM (antagonist)"),
    ("CC(C)N1CCN(C(=O)NC2Cc3ccccc3C2)CC1", "30 nM (antagonist)"),
    ("O=C(NCc1ccc(OC(F)(F)F)cc1)N1CCC[C@H]1CN1CCCC1", "121 nM (antagonist)"),
    ("CC(C)N1CCN(C(=O)NCc2ccc(Cl)c(Cl)c2)CC1", "20 nM (antagonist)"),
]

These measurements were taken from ChEMBL document CHEMBL1137244.
